target: HIV Env of isolate Q461.e2 (clade A) (HIV); assay: cell-based or functional assay
Below, each entry is listed alongside its reported IC50 (µg/ml) with constrains.
Your answer should be a plain number; it is taken to be in µg/mL.

Worked set:
BINDER | U | IC50 (µg/ml) with constrains
ePGDM5 (antibody, V domains shown) VH: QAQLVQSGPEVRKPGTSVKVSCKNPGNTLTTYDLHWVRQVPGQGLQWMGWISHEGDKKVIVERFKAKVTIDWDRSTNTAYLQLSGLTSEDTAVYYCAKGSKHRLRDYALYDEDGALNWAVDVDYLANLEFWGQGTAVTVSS VL: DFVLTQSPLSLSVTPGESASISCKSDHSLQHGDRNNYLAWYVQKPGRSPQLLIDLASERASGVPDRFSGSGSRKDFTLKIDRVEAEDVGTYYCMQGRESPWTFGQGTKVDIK | µg/mL | 0.104
ePGDM13 (antibody, V domains shown) VH: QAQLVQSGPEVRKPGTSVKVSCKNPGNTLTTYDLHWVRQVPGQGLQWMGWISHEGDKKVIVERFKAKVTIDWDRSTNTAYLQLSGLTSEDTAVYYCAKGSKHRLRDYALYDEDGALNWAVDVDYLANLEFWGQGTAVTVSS VL: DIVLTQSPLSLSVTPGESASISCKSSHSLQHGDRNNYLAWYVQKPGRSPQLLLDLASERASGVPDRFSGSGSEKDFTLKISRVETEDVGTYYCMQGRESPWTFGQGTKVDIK | µg/mL | 0.132
ePGDM9 (antibody, V domains shown) VH: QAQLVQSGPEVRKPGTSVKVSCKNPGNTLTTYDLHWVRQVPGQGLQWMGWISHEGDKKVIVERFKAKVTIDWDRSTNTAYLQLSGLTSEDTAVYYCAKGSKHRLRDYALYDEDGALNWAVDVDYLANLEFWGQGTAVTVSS VL: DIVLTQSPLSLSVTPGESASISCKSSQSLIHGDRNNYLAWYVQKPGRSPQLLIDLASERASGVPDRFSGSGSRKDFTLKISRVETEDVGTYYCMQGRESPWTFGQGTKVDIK | µg/mL | 0.06

For the next question, use this binder.
Query string: Any idea what its IC50 (µg/ml) with constrains is? The binder is PGDM1400 (antibody, V domains shown) VH: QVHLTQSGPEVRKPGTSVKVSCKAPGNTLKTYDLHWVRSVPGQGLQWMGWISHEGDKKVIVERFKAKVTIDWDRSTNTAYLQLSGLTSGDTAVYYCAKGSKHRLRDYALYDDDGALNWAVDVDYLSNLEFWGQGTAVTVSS VL: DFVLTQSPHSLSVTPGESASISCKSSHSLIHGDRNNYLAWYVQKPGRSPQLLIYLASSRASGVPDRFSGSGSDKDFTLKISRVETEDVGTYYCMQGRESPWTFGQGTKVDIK
Result string: 0.143
